- Protocol: Acute toxicity in ICR mouse at 2 g/kg, po measured after 7 days
- Format: organism-based
- Measurement Setup: in vivo, 2000 mg/kg, time 7 day
Metric: LD50 at 168 h

Qu. What value of LD50 at 168 h has been reported for the following compound? C/C(O)=C1\C(=O)[C@@H]2Cc3c([nH]c4ccccc34)[C@@H](c3ccc(-c4cc(F)cc(F)c4)cc3)N2C1=O
Ans. > 2000 mg/kg

* * *

- Protocol: AUC(0 to infinity) in ICR mouse at 1 mg/kg, iv
- Format: ADME, organism-based
- Measurement Setup: in vivo
Metric: AUC(0-inf) (ng·h/mL)
Form entry: value (ng·h/mL) — number only.

Qu. What value of AUC(0-inf) has been reported for the following compound? C/C(O)=C1\C(=O)[C@@H]2Cc3c([nH]c4ccccc34)[C@@H](c3ccc(-c4cc(F)cc(F)c4)cc3)N2C1=O
Ans. 4290
